Source listed as patent US20110105515A1.

Tested on: SR
Settings: read-out: LC50; SR (Leukemia), 48 hours, SRB
measured-endpoint: CC50 (µM)
Could you give me the number in µM? Just the number is fine.

molecule	CC50 [µM]
CN(C)c1cccc2c(S(=O)(=O)NCCCCCCCCCCOc3ccc4c(c3)[N+]([O-])=C3C4=C[C@@]45NC(=O)C6(CCCN6C4=O)CC5C3(C)C)cccc12 (some centres unmarked) [Dansyl Analogue]	23.7

# context switch: different molecule, same CC50
(Q) Report CC50 for CC1(C)C=Cc2c(ccc3c4c(n(O)c23)C(C)(C)C2CC35CCCN3C(=O)C2(NC5=O)C4SCC(NC(=O)CCC(N)C(=O)O)C(=O)NCC(=O)O)O1 (centres unmarked) [Glutathione Adduct] please.
(A) 16.7

----------
Test system: NCI-H23
Settings: read-out: LC50; NCI-H23 (Non-Small Cell Lung Cancer), 48 hours, SRB
Overview of reported CC50 across a group of compounds:
Just the number in µM, nothing appended.

compound	readout-value
CC1(C)C=Cc2c(ccc3c4c(n(O)c23)C(C)(C)C2CC35CCCN3C(=O)C2(NC5=O)C4SCC(NC(=O)CCC(N)C(=O)O)C(=O)NCC(=O)O)O1 (centres unmarked) [Glutathione Adduct]	14.9

Moving on to another compound below.
(Q) Fill in: CC50 of CN(C)c1cccc2c(S(=O)(=O)NCCCCCCCCCCOc3ccc4c(c3)[N+]([O-])=C3C4=C[C@@]45NC(=O)C6(CCCN6C4=O)CC5C3(C)C)cccc12 (some centres unmarked) [Dansyl Analogue] is ___
(A) 9.05

----------
Tested on: RPMI-8226
Conditions: read-out: LC50; RPMI-8226 (Leukemia), 48 hours, SRB
measured-endpoint: CC50

compound	measured-on	measured-endpoint	readout-value
CN(C)c1cccc2c(S(=O)(=O)NCCCCCCCCCCOc3ccc4c(c3)[N+]([O-])=C3C4=C[C@@]45NC(=O)C6(CCCN6C4=O)CC5C3(C)C)cccc12 (some centres unmarked)	RPMI-8226	CC50	> 100 µM

// switching to the query compound
(Q) Name the recorded CC50 for CC1(C)C=Cc2c(ccc3c4c(n(O)c23)C(C)(C)C2CC35CCCN3C(=O)C2(NC5=O)C4SCC(NC(=O)CCC(N)C(=O)O)C(=O)NCC(=O)O)O1 (centres unmarked) .
(A) > 50 µM

----------
Test system: COLO 205
Settings: COLO 205 (Colon Cancer), 48 hours, SRB
measured-endpoint: TGI (µM)
Write it as a number; the unit µM goes unstated.

compound	measured-on	TGI / µM
[2H]On1c2c(c3ccc4c(c31)C=CC(C)(C)O4)C(OC([2H])([2H])[2H])[C@@]13NC(=O)C4(CCCN4C1=O)CC3C2(C)C (stereo partly shown)	COLO 205	1.45
CN(C)c1cccc2c(S(=O)(=O)NCCCCCCCCCCOc3ccc4c(c3)[N+]([O-])=C3C4=C[C@@]45NC(=O)C6(CCCN6C4=O)CC5C3(C)C)cccc12 (stereo partly shown)	COLO 205	1.14
CC1(C)C=Cc2c(ccc3c4c(n(O)c23)C(C)(C)C2CC35CCCN3C(=O)C2(NC5=O)C4SCC(NC(=O)CCC(N)C(=O)O)C(=O)NCC(=O)O)O1 (stereo not shown)	COLO 205	15.1

(Q) Which TGI value belongs to Cc1cc(C)cc(-c2ccc3c(c2)[N+]([O-])=C2C3=C[C@@]34NC(=O)C5(CCCN5C3=O)CC4C2(C)C)c1 (stereo partly shown) ?
(A) 0.259
